Biological target: EGFR(L858R/T790M) (Homo sapiens, UniProt P00533, L858R/T790M)
Construct: purchased from Carna (GST-a.a. 669-1210)
Sequence (P00533 669-1210 T790M/L858R): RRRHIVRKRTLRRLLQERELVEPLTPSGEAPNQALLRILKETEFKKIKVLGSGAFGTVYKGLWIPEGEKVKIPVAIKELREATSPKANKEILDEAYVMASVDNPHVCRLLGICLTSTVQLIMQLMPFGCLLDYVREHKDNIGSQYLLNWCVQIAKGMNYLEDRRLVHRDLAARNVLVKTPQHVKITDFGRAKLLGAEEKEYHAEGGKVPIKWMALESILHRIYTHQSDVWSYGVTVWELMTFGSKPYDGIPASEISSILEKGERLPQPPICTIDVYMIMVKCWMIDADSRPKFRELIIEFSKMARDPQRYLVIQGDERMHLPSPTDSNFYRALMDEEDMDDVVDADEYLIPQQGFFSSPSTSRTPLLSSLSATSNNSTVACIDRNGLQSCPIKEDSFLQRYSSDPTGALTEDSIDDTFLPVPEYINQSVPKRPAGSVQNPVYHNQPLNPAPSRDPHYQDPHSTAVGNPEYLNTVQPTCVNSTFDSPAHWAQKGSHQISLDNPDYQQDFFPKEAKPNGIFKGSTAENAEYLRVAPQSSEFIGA
Assay: EGFR biochemical assay (HTRF), IC50 determinations
Details: EGFR (L858R/T790M) with no pre-incubation; read-out: IC50 (μM) Column A
Method: All EGFR biochemical assays were carried out by HTRF method. […] The substrate peptide Biotin-TK-peptide was purchased from Cis-Bio. […] All reactions were carried out at room temperature in white ProxiPlate™ 384-well Plus plates (PerkinElmer) and were quenched with 5 μL of 0.2 M EDTA at 60 min. Five L of the detection reagents (2.5 ng PT66K and 0.05 μg SAXL per well) were added, the plates were incubated at room temperature for 1 h and then read in EnVision reader. […]
property.measured: IC50 (µM)

Study these solved cases before continuing.
C=CC(=O)N1CCC[C@@H](n2c(NC(=O)c3cccc(C(F)(F)F)c3)nc3cc(CN4CCCC4)ccc32)C1 ... 0.036
C=CC(=O)N1CCCC[C@@H](n2c(NC(=O)c3ccnc(C)c3)nc3cc(CN4CC[C@H](F)C4)cc(C)c32)C1 ... 0.002
C=CC(=O)N1CCCC[C@@H](n2c(NC(=O)c3cccc(C(F)(F)F)c3)nc3ccccc32)C1 ... 0.006
C/C=C/C(=O)N1CCCC[C@@H](n2c(NC(=O)c3cc(C)nc(C)c3)nc3cc(CN4CC[C@H](F)C4)cc(C)c32)C1 ... 0.054
Cc1cc(C(=O)Nc2nc3cccc(C)c3n2[C@@H]2CCCCN(C(=O)/C=C/CN(C)C)C2)cnn1 ... 0.007

(a) C=CC(=O)N1CCCC[C@@H](n2c(NC(=O)c3cc(C)nc(C)c3)nc3cc(CN4CC[C@@H](OC)C4)cc(C)c32)C1
(b) O=C(Nc1nc2cccc(Cl)c2n1[C@@H]1CCCCN(C(=O)/C=C/CN2CC[C@@H](F)C2)C1)c1ccnnc1
Field: lower recorded IC50 (choose a or b ) Provide the label of your selected option as the answer. a

###

Biological target: human EGFR L858R (NIH/3T3 cells) (Homo sapiens, UniProt P00533, L858R)
Sequence (P00533 25-1210 L858R): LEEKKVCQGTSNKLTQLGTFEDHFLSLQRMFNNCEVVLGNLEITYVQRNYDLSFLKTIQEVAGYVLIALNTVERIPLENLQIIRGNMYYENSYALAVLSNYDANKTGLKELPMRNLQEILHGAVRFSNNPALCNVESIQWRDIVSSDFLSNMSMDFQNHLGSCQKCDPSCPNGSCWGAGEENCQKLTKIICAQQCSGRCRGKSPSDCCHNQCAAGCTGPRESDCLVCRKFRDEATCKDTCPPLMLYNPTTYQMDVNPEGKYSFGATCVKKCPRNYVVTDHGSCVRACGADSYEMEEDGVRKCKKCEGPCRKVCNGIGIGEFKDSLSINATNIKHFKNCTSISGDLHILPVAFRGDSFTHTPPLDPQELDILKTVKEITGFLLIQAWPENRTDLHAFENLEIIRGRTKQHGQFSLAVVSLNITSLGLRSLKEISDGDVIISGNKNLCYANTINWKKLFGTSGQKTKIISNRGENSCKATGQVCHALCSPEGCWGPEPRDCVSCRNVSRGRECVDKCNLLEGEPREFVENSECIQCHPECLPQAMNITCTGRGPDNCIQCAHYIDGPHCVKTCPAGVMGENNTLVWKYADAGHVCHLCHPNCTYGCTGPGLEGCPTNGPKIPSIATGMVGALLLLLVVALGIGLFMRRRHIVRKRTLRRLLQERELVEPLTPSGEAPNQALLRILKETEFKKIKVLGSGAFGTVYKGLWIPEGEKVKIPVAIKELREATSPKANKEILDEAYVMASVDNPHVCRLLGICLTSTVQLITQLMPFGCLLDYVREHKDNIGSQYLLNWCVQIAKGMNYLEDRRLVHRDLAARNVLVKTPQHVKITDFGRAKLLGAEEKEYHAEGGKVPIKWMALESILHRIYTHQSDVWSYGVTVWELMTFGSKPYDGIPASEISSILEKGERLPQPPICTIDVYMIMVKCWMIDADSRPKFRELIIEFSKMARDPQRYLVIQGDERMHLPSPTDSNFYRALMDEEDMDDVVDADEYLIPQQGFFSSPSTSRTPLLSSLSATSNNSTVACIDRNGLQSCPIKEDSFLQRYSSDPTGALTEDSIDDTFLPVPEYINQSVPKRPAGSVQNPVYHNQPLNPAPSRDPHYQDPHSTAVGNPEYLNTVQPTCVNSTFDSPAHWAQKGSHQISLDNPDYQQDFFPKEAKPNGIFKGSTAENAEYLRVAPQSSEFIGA
Assay: EGFR target modulation in engineered NIH/3T3 cell lines (phospho-EGFR Y1068 AlphaLISA), EGFR L858R
Type: cell-based
Details: engineered NIH/3T3 cells, read-out: NIH3T3 IC50 (μM) EGFR (L858R)
property.measured: IC50 (µM)

Check out these entries, answers already filled in.
C=CC(=O)N1CCCC[C@@H](n2c(NC(=O)c3ccccc3)nc3cc(COCCOC)cc(C)c32)C1 [Example 17-128] ... 0.006
C=CC(=O)N1CCCCC(n2c(NC(=O)c3ccccc3)nc3cccc(C)c32)C1 (stereo not shown) [Example 17-11] ... 0.015
C=CC(=O)N1CCCC[C@H](n2c(NC(=O)c3cccc(C(F)(F)F)c3)nc3cccc(C)c32)C1 (single isomer, unassigned) [Example 21-3] ... 2.2

(a) C=CC(=O)N1CCOCC(n2c(NC(=O)c3cccc(C(F)(F)F)c3)nc3cccc(C)c32)C1 (stereo not shown) [Example 17-14]
(b) Cc1cccc2nc(NC(=O)c3ccnc(Cl)c3)n([C@@H]3CCCCN(C(=O)/C=C/CN(C)C)C3)c12 [Example 17-73]
I'm curious, which of these has a smaller IC50 number: a or b ? Returns: label corresponding to the selected item. b

###

Molecular target: HEKn (EGFR WT) (Homo sapiens, UniProt P00533)
Sequence (P00533 25-1210): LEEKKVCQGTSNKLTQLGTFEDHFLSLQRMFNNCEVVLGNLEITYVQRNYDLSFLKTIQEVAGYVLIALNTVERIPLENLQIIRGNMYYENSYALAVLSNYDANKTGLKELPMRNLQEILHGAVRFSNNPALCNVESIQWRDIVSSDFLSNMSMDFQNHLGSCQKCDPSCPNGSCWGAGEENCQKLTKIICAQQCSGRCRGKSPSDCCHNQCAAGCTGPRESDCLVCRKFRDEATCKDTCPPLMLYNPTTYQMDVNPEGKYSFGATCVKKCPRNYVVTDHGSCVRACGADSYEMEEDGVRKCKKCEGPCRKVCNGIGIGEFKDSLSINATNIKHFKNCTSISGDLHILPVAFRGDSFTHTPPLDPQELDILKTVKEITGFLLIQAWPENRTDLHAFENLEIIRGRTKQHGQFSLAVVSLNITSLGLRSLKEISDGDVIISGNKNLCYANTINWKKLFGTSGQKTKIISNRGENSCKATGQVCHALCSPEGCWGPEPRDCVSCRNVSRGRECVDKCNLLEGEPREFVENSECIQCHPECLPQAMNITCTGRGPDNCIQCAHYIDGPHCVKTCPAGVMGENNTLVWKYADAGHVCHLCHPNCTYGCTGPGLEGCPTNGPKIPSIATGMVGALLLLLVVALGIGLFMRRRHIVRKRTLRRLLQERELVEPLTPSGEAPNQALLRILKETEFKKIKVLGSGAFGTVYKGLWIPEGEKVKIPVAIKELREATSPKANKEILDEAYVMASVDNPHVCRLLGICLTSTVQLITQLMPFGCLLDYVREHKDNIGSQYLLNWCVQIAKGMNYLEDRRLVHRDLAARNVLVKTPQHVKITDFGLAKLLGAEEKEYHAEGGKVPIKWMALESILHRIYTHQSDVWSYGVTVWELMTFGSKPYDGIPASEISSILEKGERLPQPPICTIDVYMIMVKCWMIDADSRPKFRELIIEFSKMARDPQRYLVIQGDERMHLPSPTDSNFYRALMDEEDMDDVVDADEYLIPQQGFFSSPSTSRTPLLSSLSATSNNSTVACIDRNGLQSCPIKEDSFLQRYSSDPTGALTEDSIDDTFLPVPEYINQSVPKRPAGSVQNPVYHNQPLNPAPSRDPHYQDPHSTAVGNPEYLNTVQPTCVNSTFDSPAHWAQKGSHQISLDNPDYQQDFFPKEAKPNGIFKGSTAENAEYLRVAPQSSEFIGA
Assay: EGFR target modulation in HEKn (EGFR-WT) cell line (phospho-EGFR Y1173 ELISA)
Assay type: cell-based
Details: value outside parentheses
property.measured: IC50 (nM)

Completed entries (count: 3):
C=CC(=O)N1CCCC[C@@H](n2c(NC(=O)c3ccnc(C)c3)nc3cc(CN4CCS(=O)(=O)CC4)cc(C)c32)C1 ... 61
Cc1cc(C(=O)Nc2nc3cccc(C)c3n2[C@@H]2CCCCN(C(=O)/C=C/CN(C)C)C2)cc(Cl)n1 ... 261
C=CC(=O)N1CCCC[C@@H](n2c(NC(=O)c3ccccc3)nc3cccc(CN(C)C)c32)C1 ... 28

(a) C=CC(=O)N1CCCC[C@@H](n2c(NC(=O)c3ccnnc3)nc3cccc(OC)c32)C1
(b) COc1cc2nc(NC(=O)c3ccnc(C)c3)n([C@@H]3CCCCN(C(=O)/C=C/CN(C)C)C3)c2cc1Cl
(c) C=CC(=O)N1CCCC[C@@H](n2c(NC(=O)c3ccnc(C)c3)nc3cc(CN4CC(F)(F)C4)cc(C)c32)C1
Sort entries by IC50 from minimum to maximum value. Give me the labels in the order the question wants. c, a, b

###

Target: H3255 (EGFR L858R) (Homo sapiens, UniProt P00533, L858R)
Assay: EGFR target modulation in H3255 cell line (phospho-EGFR Y1173 ELISA)
Method: EGFR Target Modulation in H1975, H3255 and HCC827 Cell Lines Tissue Culture. Cells were maintained in 10% FBS/RPMI supplemented with 100 μg/ml Penicillin/Streptomycin (Hyclone #SH30236.01). […] The cells were allowed to incubate overnight in a 37° C., 5% CO2 humidified tissue culture incubator. […] Signal was read on EnVision plate reader using built-in UltraLUM setting. […] With these parameters, the IC50's for each compound in each cell line was calculated using non-linear curve fitting analysis.
pIC50: −log10 of the molar value.
property.measured: pIC50

(1) Cc1cccc2nc(NC(=O)c3cccc(F)c3F)n(C3CCCCN(C(=O)/C=C/CN(C)C)C3)c12 (stereo not shown)
(2) C=CC(=O)N1CCCC[C@@H](n2c(NC(=O)c3cc(C)nc(C)c3)nc3cc(CN4CC[C@H](F)C4)cc(C)c32)C1
(3) Cc1cc(C(=O)Nc2nc3cccc(Cl)c3n2[C@@H]2CCCCN(C(=O)/C=C/CN3CC[C@@H](O)C3)C2)ccn1
(4) C=CC(=O)N1CCC[C@@H](n2c(NC(=O)c3cccc(C(F)(F)F)c3)nc3cc(C)ccc32)C1
Please produce an ascending ranking of these molecules based on pIC50. I'd appreciate it if you listed the labels in the requested order. 4, 1, 3, 2
(4: 6.61, 1: 7.06, 3: 7.66, 2: 8.70)

(a) Cc1cccc2nc(NC(=O)c3cccc(C(F)(F)F)c3)n(C3CCCCN(C(=O)/C=C/CN(C)C)C3)c12 (stereo not shown)
(b) COc1ccc(C(=O)Nc2nc3cccc(C)c3n2C2CCCCN(C(=O)/C=C/CN(C)C)C2)cn1 (stereo not shown)
(c) C=CC(=O)N1CCC[C@@H](n2c(NC(=O)c3cccc(C(F)(F)F)c3)nc3cc(COC)ccc32)C1
(d) Cc1cccc2nc(NC(=O)c3ccnc(F)c3)n(C3CCCCN(C(=O)/C=C/CN(C)C)C3)c12 (stereo not shown)
Rank items: key pIC50, increasing. Put the labels in the order asked and list them. c, a, d, b

(a) C=CC(=O)N1CCCC[C@@H](n2c(NC(=O)c3ccnc(C)c3)nc3cc(CN4CC(F)(F)C4)cc(C)c32)C1
(b) C=CC(=O)N1CCC[C@@H](n2c(NC(=O)c3cccc(C(F)(F)F)c3)nc3cc(CN4CCCC4)ccc32)C1
(c) Cc1cccc2nc(NC(=O)c3ccccc3)n(C3CCCCN(C(=O)/C=C/CN(C)C)C3)c12 (stereo not shown)
(d) Cc1cc(C(=O)Nc2nc3cccc(Cl)c3n2[C@@H]2CCCCN(C(=O)/C=C/CN(C3CC3)C3CC3)C2)ccn1
(e) Cc1cccc2nc(NC(=O)c3cncc(C(F)(F)F)c3)n([C@@H]3CCCCN(C(=O)/C=C/CN(C)C)C3)c12
Parameters: sort_field (pIC50), sort_dir (desc). Your reply should list the labels following the order given in the request. a, e, d, c, b

###

Molecular target: EGFR(L858R/T790M) (Homo sapiens, UniProt P00533, L858R/T790M)
Construct: purchased from Carna (GST-a.a. 669-1210)
Experiment: EGFR biochemical assay (HTRF), IC50 determinations
Settings: EGFR (L858R/T790M) with 90 min pre-incubation; read-out: IC50 (μM) Column B
property.measured: IC50 (µM)

(a) COc1cc2nc(NC(=O)c3ccnc(C)c3)n([C@@H]3CCCCN(C(=O)/C=C/CN(C)C)C3)c2cc1Cl
(b) Cc1cccc2nc(NC(=O)c3ccn(C)c(=O)c3)n(C3CCCCN(C(=O)/C=C/CN(C)C)C3)c12 (stereo not shown)
// pick larger IC50 from pair: a vs b // output: label of the selected item a
(a: 0.006 µM, b: 0.001 µM)

###

Target: human EGFR L858R/T790M (NIH/3T3 cells) (Homo sapiens, UniProt P00533, L858R/T790M)
Sequence (P00533 25-1210 T790M/L858R): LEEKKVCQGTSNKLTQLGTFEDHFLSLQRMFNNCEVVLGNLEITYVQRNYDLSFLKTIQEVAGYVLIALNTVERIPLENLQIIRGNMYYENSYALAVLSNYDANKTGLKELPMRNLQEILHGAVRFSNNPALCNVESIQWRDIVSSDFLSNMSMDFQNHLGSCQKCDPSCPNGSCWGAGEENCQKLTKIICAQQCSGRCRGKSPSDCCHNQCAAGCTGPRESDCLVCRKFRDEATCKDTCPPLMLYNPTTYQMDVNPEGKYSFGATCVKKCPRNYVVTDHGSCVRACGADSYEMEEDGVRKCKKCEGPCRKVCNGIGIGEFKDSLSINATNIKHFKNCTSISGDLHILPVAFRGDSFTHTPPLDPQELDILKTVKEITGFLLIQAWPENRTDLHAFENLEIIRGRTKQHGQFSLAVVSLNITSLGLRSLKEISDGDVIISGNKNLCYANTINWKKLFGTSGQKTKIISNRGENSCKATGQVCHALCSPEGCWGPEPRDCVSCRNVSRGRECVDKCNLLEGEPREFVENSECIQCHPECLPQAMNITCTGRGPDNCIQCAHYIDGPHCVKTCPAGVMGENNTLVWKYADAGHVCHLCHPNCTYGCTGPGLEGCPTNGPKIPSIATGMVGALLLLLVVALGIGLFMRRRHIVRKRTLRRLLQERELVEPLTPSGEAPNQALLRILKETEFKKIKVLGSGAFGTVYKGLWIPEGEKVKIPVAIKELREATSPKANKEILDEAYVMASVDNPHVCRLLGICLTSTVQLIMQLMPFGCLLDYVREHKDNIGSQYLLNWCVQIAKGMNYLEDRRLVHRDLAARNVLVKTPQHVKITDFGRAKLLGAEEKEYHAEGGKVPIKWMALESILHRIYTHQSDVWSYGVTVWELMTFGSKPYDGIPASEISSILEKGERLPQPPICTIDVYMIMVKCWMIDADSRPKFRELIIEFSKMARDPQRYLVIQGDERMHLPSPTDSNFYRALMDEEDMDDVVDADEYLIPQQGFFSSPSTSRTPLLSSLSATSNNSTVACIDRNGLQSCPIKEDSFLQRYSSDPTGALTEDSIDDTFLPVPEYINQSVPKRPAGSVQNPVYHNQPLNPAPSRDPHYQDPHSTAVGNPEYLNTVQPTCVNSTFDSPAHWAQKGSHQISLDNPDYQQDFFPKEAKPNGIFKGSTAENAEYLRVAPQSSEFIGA
Test: EGFR target modulation in engineered NIH/3T3 cell lines (phospho-EGFR Y1068 AlphaLISA), EGFR L858R/T790M
Assay type: cell-based
Details: engineered NIH/3T3 cells, read-out: NIH3T3 IC50 (μM) EGFR (L858R/T790M)
property.measured: IC50 (µM)

Cc1cccc2nc(NC(=O)c3cc(Cl)nc(OC(F)(F)F)c3)n([C@@H]3CCCCN(C(=O)/C=C/CN(C)C)C3)c12 ... 0.02
Cc1cccc2nc(NC(=O)c3ccc(F)c(Cl)c3F)n(C3CCCCN(C(=O)/C=C/CN(C)C)C3)c12 (stereo not drawn) ... 0.004

(I) Cc1cccc(C(=O)Nc2nc3cccc(C)c3n2C2CCCCN(C(=O)/C=C/CN(C)C)C2)c1 (stereo not drawn)
(II) C=CC(=O)N1CCC[C@@H](n2c(NC(=O)c3ccnc(C)c3)nc3cccc(C)c32)C1
Looking only at measured IC50, which entry is lower, I or II ? Field: selected label. Fill in the label of the entry you choose. I

(A) C=CC(=O)N1CCCC[C@@H](n2c(NC(=O)c3ccnc(C)c3)nc3cccc(Cl)c32)C1
(B) Cc1cccc2nc(NC(=O)c3cncc(C(F)(F)F)c3)n([C@@H]3CCCCN(C(=O)/C=C/CN(C)C)C3)c12
# query: argmin of IC50 over A and B Give the label of your selection. B

(1) Cc1cccc2nc(NC(=O)c3ccc(F)c(F)c3)n(C3CCCCN(C(=O)/C=C/CN(C)C)C3)c12 (stereo not drawn)
(2) C=CC(=O)N1CCCCC(n2c(NC(=O)c3ccccc3)nc3cccc(C(=O)NCCC(=O)OC)c32)C1 (stereo not drawn)
Rank 1 against 2 by their IC50 values and give the higher one. Indicate your choice by writing its label. 2
(2: 0.073 µM, 1: 0.004 µM)

(P) Cc1ncc(C(=O)Nc2nc3cccc(C)c3n2C2CCCCN(C(=O)/C=C/CN(C)C)C2)s1 (stereo not drawn) [Example 17-64]
(Q) COc1cccc2nc(NC(=O)c3ccnnc3)n([C@@H]3CCCCN(C(=O)/C=C/CN(C)C)C3)c12
(R) C=CC(=O)N1CCCCC(n2c(NC(=O)c3cccc(C(F)(F)F)c3)nc3cccc(CN4CCCC4)c32)C1 (stereo not drawn)
(S) C=C(CN1CCCC1)C(=O)N1CCCC[C@@H](n2c(NC(=O)c3ccnnc3)nc3cccc(C)c32)C1
Reorder: IC50, max to min. API: response body holds the labels in the requested order. S, Q, P, R
